TESTED_TARGET: human notum pectinacetyltransferase (Homo sapiens)
Construct: made in house; unpurified conditioned medium used
MEASUREMENT_PROTOCOL: Binding assay (OPTS esterase substrate, fluorimetric)
Assay type: biochemical
COND: class symbols
Items are presented alongside their recorded IC50.

Worked set:
[[record]]
compound = "COc1ccc2c(c1Cl)CCc1cc(C(=O)NCCc3nnn[nH]3)sc1-2"
value = "< 1 µM"

[[record]]
compound = "CCOC(=O)c1cc2c(s1)-c1ccc(C)c(Cl)c1CC2"
value = "< 1 µM"

[[record]]
compound = "O=C(c1cc2c(s1)-c1cc(Cl)cc(F)c1OC2)N1CCC(F)C1 (stereo not drawn)"
value = "< 1 µM"


## Input Look up IC50: Cc1cccc2c1OCc1cc(C(=O)O)sc1-2
## Output < 2 µM

## Input # get_value(readout='IC50', item= NC(=O)c1cc2c(s1)-c1ccc(Cl)c(Cl)c1OCC2 )
## Output < 2 µM

## Input IC50 lookup needed for O=C(NCCO)c1cc2c(s1)-c1ccccc1CCC2 , thanks.
## Output < 0.1 µM

====

TESTED_TARGET: human notum pectinacetyltransferase (Homo sapiens, UniProt Q6P988)
Construct: made in house; unpurified conditioned medium used
Sequence (Q6P988 20-496): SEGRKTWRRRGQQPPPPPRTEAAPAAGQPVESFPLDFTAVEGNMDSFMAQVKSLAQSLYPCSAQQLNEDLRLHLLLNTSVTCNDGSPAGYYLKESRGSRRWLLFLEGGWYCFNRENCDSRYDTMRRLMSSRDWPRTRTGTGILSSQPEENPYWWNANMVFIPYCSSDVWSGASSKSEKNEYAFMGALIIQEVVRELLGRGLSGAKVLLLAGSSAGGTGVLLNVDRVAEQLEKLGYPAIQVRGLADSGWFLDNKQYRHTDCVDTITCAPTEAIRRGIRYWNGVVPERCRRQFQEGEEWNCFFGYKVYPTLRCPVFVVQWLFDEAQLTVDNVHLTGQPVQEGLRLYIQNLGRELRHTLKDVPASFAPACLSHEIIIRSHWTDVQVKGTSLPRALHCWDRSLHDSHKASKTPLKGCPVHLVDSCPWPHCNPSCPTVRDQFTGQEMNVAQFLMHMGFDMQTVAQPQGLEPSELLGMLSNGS
MEASUREMENT_PROTOCOL: Reporter assay (CellSensor LEF/TCF-bla FreeStyle 293F cells, Wnt3a and notum conditioned media)
Assay type: cell-based
COND: class symbols
EXPERIMENTAL_ENDPOINT: EC50

Here's what some known entries look like.
[[record]]
compound = "CNc1ccc2c(c1)CCc1cc(C(=O)O)sc1-2"
value = "< 50 nM"

[[record]]
compound = "O=C(O)c1cc2c(s1)-c1ccccc1S(=O)(=O)CC2"
value = "< 1000 nM"

[[record]]
compound = "O=C(O)c1cc2c(s1)-c1cc(F)c(F)cc1OC2"
value = "< 50 nM"

[[record]]
compound = "NCCNC(=O)c1cc2c(s1)-c1ccccc1CC2"
value = "< 500 nM"

[[record]]
compound = "NC(=O)c1cc2c(s1)-c1ccc(Cl)c(F)c1SC2"
value = "< 50 nM"


## Input Using the record for Cc1ccc2c(c1F)OCc1cc(C(=O)O)sc1-2 , report its EC50.
## Output < 50 nM

## Input May I ask what EC50 has been recorded for COc1ccc2c(c1Cl)CCc1cc(C(=O)N3CCC(OC)C3)sc1-2 (stereo not shown) ?
## Output < 50 nM

====

Quick list: IC50 per entry.
TESTED_TARGET: human notum pectinacetyltransferase (Homo sapiens)
Construct: made in house; unpurified conditioned medium used
MEASUREMENT_PROTOCOL: Binding assay (OPTS esterase substrate, fluorimetric)
Assay type: biochemical
COND: given as numeric bound above the legend's highest class
Protocol: Plasmid containing human notum pectinacetyltransferase in pcDNA3.1(+) vector was transfected into HEK (293 cells and clones were selecting by growing in presence of 400 ug/mL of G418. Condition media from these cells was used for the assay.

Field: example entries. Status: answers known.
[[record]]
compound = "CCOC(=O)c1cc2c(s1)-c1ccc(OC)cc1CC2"
experimental_endpoint = "IC50"
value = "> 2000 nM"

[[record]]
compound = "COc1ccc2c(c1)-c1sc(C(=O)O)cc1CO2"
experimental_endpoint = "IC50"
value = "> 2000 nM"

[[record]]
compound = "COc1ccc2c(c1)-c1sc(C(=O)O)cc1CC2"
experimental_endpoint = "IC50"
value = "> 2000 nM"

[[record]]
compound = "O=C(O)c1cc2c(s1)-c1cc(F)cc(F)c1[S+]([O-])C2 (centres unmarked)"
experimental_endpoint = "IC50"
value = "> 2000 nM"

[[record]]
compound = "CCOC(=O)c1cc2c(s1)-c1cccc(C#N)c1CC2"
experimental_endpoint = "IC50"
value = "> 2000 nM"

[[record]]
compound = "COCCNC(=O)c1cc2c(s1)-c1cc(F)ccc1OCC2"
experimental_endpoint = "IC50"
value = "> 2000 nM"

[[record]]
compound = "O=C(NCCN1CCOCC1)c1cc2c(s1)-c1ccc(Cl)c(F)c1OC2"
experimental_endpoint = "IC50"
value = "> 2000 nM"


## Input Endpoint output: IC50 of N#Cc1ccc2c(c1)-c1sc(C(=O)O)cc1CO2 . Value?
## Output > 2000 nM

Data origin, for the record: patent US9624238B2
